Where do these numbers come from? They come from patent US20230322958A1.

Molecular target: T1, huNotch2-EGF6-10 (human, UniProt Q04721 219-418)
T1 construct: also called human Notch2 EGF6-10
T1 sequence: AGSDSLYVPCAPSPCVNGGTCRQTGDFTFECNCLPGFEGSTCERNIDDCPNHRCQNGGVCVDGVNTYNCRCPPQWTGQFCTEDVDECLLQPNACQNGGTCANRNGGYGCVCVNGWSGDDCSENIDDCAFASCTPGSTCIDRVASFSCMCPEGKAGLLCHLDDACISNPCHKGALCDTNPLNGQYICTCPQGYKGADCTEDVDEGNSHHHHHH
Assay: SPR BIAcore T200, antibody captured on protein A, 37 C
QUANTITY: koff
Your answer should be a number followed by the unit of measure.

| BINDER | koff |
| --- | --- |
| hu1B2.v104 (antibody, V domains shown, Human IgG1 backbone; also called hu1B2.v014) VH: EVQLVESGGGLVQPGGSLKLSCAVSGFTFSDFYMEWVRQASGKGLEWVAAQRNKANDFSIVYSASVKDRFTISRDDSKSTLYLQMNSLKTEDTAVYYCSRDGGKLALDAWGQGTLVTVSS VL: DIQMTQSPSSVSASVGDRVTITCQTSEDIYSGLAWYQQKPGKSPKLLIYGASRLQDGVPSRFSGSGSGTDYTLTISSLQPEDFATYYCQQGFKYPLTFGGGTKVEIK | 0.0011 s⁻¹ |

Consider now this further binder.
Form: binder = hu1B2.v102 (antibody, V domains shown, Human IgG1 backbone) VH: EVQLVESGGGLVQPGGSLKLSCAVSGFTFSDFYMEWVRQASGKGLEWVAAQRNKANDFSIVYSASVKDRFTISRDDSKSTLYLQMNSLKTEDTAVYYCSRDGGRLALDAWGQGTLVTVSS VL: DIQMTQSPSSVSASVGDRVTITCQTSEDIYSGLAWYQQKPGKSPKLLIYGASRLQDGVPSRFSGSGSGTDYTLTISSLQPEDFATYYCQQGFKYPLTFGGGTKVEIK ; koff = 0.00131 s⁻¹
